Assay: Pilot pharmacokinetic study, single subcutaneous administration
Details: male, Indian origin, rhesus monkey, in vivo, 300 mg/kg, Plasma GS-CA1 level, 300 mg/kg s.c.; 8 weeks post dose; individual animals; unit inferred
quantity_name: concentration at 8 weeks (µM)

molecule: CC(C)(C#Cc1ccc(-c2ccc(Cl)c3c(NS(=O)(=O)C4CC4)nn(CC(F)F)c23)c([C@H](Cc2cc(F)cc(F)c2)NC(=O)Cn2nc(C(F)F)c3c2C(F)(F)[C@@H]2C[C@H]32)n1)S(C)(=O)=O [GS-CA1]
quantity_name: concentration at 8 weeks
number: 0.198

---

Test: in vivo
Details: male, Indian origin, rhesus monkey, in vivo, sc, 300 mg/kg

item_smiles: CC(C)(C#Cc1ccc(-c2ccc(Cl)c3c(NS(=O)(=O)C4CC4)nn(CC(F)F)c23)c([C@H](Cc2cc(F)cc(F)c2)NC(=O)Cn2nc(C(F)F)c3c2C(F)(F)[C@@H]2C[C@H]32)n1)S(C)(=O)=O
AUC(0-inf) (µM·h): 1120
